Target: T1, cynomolgus ALK-1 cell surface (cynomolgus monkey)
T1 chain: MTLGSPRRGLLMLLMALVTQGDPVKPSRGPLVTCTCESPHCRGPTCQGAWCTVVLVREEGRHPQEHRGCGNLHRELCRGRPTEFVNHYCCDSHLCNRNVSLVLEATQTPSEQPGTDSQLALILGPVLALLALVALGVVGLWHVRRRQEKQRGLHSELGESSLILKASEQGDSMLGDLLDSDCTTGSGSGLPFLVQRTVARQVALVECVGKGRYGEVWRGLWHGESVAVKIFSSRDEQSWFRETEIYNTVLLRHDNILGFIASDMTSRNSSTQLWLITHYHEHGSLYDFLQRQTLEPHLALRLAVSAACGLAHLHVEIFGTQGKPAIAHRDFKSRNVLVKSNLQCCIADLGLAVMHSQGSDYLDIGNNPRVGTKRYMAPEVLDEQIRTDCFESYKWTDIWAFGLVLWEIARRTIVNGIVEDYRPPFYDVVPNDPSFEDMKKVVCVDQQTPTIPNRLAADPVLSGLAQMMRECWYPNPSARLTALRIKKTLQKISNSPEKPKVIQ
Experiment: FACS
value.kind: Kd (nM)
Please state the figure in nM; there is no need to write the unit.

Before answering, review these 3 worked examples.
binder	value.units	Kd
4.24.1 (antibody, V domains shown) VH: QVQLQESGPGLVKPSQTLSLTCTVSGGSISSNDYYWNWIRQHPGKGLEWIGYIYYSGSTYYNPSLKSRVTISVDTSKNQFSLKLSSVTAADTAVYYCARESTDGMDVWGQGTTVTVSS VL: ENVLTQSPGTLSLSPGERATLSCRASQSVSSNYLAWYQQKPGQAPRLLIYGASSGATGIPDRFSGSGSGTDFTLTISRLEPEDFAVYYCQHYGSSPITFGQGTRLEIK	nM	3.1
4.72.1 (antibody, V domains shown) VH: QVQLQESGPGLVKPSQTLSLTCTVSGGSISSGEYYWSWIRQHPGKGLEWIGYIFYSGSTYYNPSLKSRVTISLDTSKNQFSLKLSSVTAADTAVYYCARESTDGMDVWGQGTTVTVSS VL: EIVLTQSPGTLSLSPGERATLSCRASQSVSSSYLAWYQRKPGQAPRLLIYGVSSRATGIPDRFSGSGSGTDFTLTISRLEPEDFAVYYCQQYGSSMITFGQGTRLEIK	nM	3.8
5.13.1 (antibody, V domains shown) VH: QVQLQESGPGLVKPSQTLSLTCTVSGGSISSGDYYWNWIRQHPGKGLEWIGYIYYSGSTYYNPSLKSRVTISVDTSKNQFSLKLSSVTAADTAVYYCAREGLEAFDIWGQGTMVTDSS VL: EIVLTQSPGTLSLSPGERATLSCRASQSVSSSYLAWYQQKPGQAPRLLIYDASSRATGIPDRFSGSGSGTDFTLTISRLEPEDFAVYYCQHYGSSLLTFGGGTKVEIK	nM	1.6

Now for another entry.
Ask: Name the reported Kd value associated with the binder 1.162.1 (antibody, V domains shown) VH: QVQLQESGPGLVKPSQTLSLICTVSGGSISSGEYYWSWIRQHPGKGLEWIGYIYYSGSTYYNPSLKSRLTISVDTSKNQFSLKLSSVTAADTAVYYCAREGIGAFDIWGQGTMVTVSS VL: EIVLTQSPGTLSLSPGERATLSCRASQSVSSSYLAWYQQKPGQAPRLLIYGASSRATGIPDRFSGSGSGTDFTLTIIRLDPEDFAVYYCQRYGSSPITFGQGTRLEIK
Result: 3
